Each entry below carries its reported photocatalytic hydrogen evolution rate.
assay remarks: photocatalytic hydrogen evolution rate (per 5 mg catalyst); higher = more photocatalytic H2 evolution; extreme values may be limits of the assay;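 further: aromatic molecules in triethylamine/methanol/water with Pt photoreduced in situ, irradiated 3 h under a 1 sun AM 1.5G solar simulator (350–1000 nm), H2 quantified by headspace gas chromatography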;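 further: listed molecule itself used as the photocatalyst at 5 mg per vial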
condition context: catalyst mass (mg): 5; Pt cocatalyst (wt%): 3; sacrificial medium: triethylamine/methanol/water 1:1:1
Numeric answer only, unit µmol/h assumed.

Consider the worked cases shown below.
- O=C(c1ccc(O)cc1)c1ccc(O)cc1: 0
- Cc1cc(C)cc([N+](=O)[O-])c1: 0
- N#Cc1c[nH]c2ccc(Br)cc12: 0.015
- Fc1c(F)c(-c2c(F)c(F)c(Br)c(F)c2F)c(F)c(F)c1Br: 0

So, Brc1ccc(I)cc1 ? Its photocatalytic hydrogen evolution rate was 0
